Target: IDH1 wt/IDH1 R132H heterodimer (Homo sapiens (Human), UniProt O75874, R132H)
Sequence (O75874 whole entry R132H): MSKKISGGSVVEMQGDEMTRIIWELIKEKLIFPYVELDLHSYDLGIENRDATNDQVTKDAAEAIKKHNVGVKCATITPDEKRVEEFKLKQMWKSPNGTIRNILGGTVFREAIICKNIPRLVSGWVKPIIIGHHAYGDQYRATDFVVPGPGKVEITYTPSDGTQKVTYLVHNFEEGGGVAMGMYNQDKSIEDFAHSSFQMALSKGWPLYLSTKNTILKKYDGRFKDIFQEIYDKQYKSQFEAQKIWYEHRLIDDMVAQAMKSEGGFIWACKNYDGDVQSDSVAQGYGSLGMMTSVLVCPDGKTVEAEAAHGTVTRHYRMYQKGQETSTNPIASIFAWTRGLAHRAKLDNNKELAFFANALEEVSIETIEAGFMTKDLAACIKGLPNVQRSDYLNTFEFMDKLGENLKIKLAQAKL
Sequence (O75874 whole entry, stated change not applied): as the sequence (O75874 whole entry R132H) above, with H132R counted along it
Assay: In vitro assay for IDH1m R132H inhibitors, IDH1 wt/IDH1 R132H heterodimer, NADPH depletion (diaphorase/resazurin)
Type: biochemical
Conditions: IDH1 wt/IDH1 R132H heterodimer, 300 μM NADP (saturated); read-out: IDH1 wt/R132H NADPH/NADP IC50 saturated
pIC50: −log10 of the molar value.
property: pIC50

Here are 3 compounds together with their reported answers.
Form: item CC(F)(F)c1cc(Nc2nc(NC3CC(F)(F)C3)nc(-c3cccc(C(F)(F)F)n3)n2)ccn1 [Compound 358] ; test system IDH1 wt/IDH1 R132H heterodimer (Homo sapiens (Human), UniProt O75874, R132H); pIC50: > 7.30

Form: item C[C@@H](Nc1nc(Nc2ccnc(-c3ccc(F)cc3)c2)nc(-c2cccc(C(F)(F)F)n2)n1)C(F)(F)F [Compound 371] ; test system IDH1 wt/IDH1 R132H heterodimer (Homo sapiens (Human), UniProt O75874, R132H); pIC50: > 7.30

Form: item C[C@@H](Nc1nc(Nc2ccnc(C3(C#N)CC3)c2)nc(-c2cncc(C(F)F)n2)n1)C(F)(F)F [Compound 336] ; test system IDH1 wt/IDH1 R132H heterodimer (Homo sapiens (Human), UniProt O75874, R132H); pIC50: > 7.30

More entries:
Form: item C[C@@H](Nc1nc(N[C@H](C)C(F)(F)F)nc(-c2cccc(C(F)(F)F)n2)n1)C(F)(F)F [Compound 335] ; test system IDH1 wt/IDH1 R132H heterodimer (Homo sapiens (Human), UniProt O75874, R132H); pIC50: > 7.30
